Target: PXR (Homo sapiens, UniProt O75469)
Construct: expressed in transfected cells; host or cells: HepG2
Sequence (O75469 1-434): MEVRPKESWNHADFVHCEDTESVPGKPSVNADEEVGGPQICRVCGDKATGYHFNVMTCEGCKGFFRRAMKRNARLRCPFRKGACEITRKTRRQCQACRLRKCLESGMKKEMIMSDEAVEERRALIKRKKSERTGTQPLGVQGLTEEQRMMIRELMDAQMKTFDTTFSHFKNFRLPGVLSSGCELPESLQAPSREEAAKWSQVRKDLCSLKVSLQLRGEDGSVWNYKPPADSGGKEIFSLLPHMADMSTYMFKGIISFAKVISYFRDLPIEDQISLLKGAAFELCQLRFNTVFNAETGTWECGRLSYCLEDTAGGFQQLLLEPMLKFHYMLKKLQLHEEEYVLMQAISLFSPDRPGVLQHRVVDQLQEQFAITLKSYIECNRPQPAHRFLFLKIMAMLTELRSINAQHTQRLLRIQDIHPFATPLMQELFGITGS
Sequence (P19793 1-462 partner): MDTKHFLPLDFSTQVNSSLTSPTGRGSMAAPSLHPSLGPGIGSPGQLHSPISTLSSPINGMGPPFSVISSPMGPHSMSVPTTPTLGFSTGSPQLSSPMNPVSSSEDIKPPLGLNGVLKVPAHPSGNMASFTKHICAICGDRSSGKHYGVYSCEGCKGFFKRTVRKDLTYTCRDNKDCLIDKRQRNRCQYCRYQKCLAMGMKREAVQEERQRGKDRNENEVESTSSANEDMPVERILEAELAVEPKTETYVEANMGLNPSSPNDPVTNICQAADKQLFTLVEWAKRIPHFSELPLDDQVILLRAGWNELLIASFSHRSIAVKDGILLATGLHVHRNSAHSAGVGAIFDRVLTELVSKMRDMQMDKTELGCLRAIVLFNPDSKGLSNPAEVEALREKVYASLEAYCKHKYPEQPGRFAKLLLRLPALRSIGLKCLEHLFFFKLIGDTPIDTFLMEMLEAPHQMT
Experiment: PXR luciferase reporter transactivation assay (agonism) on HepG2 cells
Assay type: cell-based
Conditions: concentration-response, mean ± SEM, at least three experiments
Kindly state EC50 for each of the entries shown.
Answer format: numeric, µM implied, no suffix.

Lookup: Entry OCc1ccc(CN2CCC(c3nc(-c4ccc5ccccc5c4)no3)CC2)cc1 [Compound 11] : reported EC50 = ?
Found: 7.5

Lookup: Fill blank: measured EC50 of the compound CCCCCN1CCC(c2nc(-c3ccc4ccccc4c3)no2)CC1 [Compound 5] is ____.
Found: 6.4

----------
Assay: Metabolic stability in human liver S9 fraction
Type: in vitro ADME
Settings: pH 7.4, 1 μM compound, 37 °C
Description: Human liver S9 fraction (Sigma-Aldrich, St. Louis, MO, USA) was used. All incubations were performed in duplicate in a thermoblock (Dlab dry bath HB 120-S) at 37 °C. […] The slope of the linear regression of the curve obtained by reporting the natural logarithm of compound area versus incubation time (−k) was used in the conversion to in vitro t1/2 values, calculated as t1/2 = −ln(2)/k. […]
Kindly supply the reported microsomal CLint at 1 µM values for the records listed here.
Reply with the number and its unit after it.

Lookup: Recorded microsomal CLint at 1 µM for CCCCCN1CCC(c2nc(-c3ccc4ccccc4c3)no2)CC1 , please?
Found: 33.7 µL/min/mg

Lookup: Please report the recorded microsomal CLint at 1 µM for OCc1ccc(CN2CCC(c3nc(-c4ccc5ccccc5c4)no3)CC2)cc1 .
Found: 11.3 µL/min/mg

This collection of values is drawn from paper PMC10057480.
